What relative growth in counter assay was measured for each of the following?
test system: HEK293FT dCK*-only; assay: relative growth in counter assay (no AraC = 100%, AraC + DMSO = 0%); higher = more growth rescue independent of IKZF1; details: compound concentration: 5 uM; AraC concentration: 0.3 uM; overnight pretreatment + 4 days AraC
Where a name gives a salt, the structure may show the parent alone.
Numbers only, in %.

CCc1oc2ccccc2c1C(=O)c1cc(Br)c(O)c(Br)c1; -6.05

For each listed entry, give its relative growth in counter assay.
1. S=C(NCc1ccc2c(c1)OCO2)N1CCN(c2ncnc3c2oc2ccccc23)CC1
2. CCCCCCC[N+](CC)(CC)CCCCc1ccc(Cl)cc1
3. Cc1cc(N)c2ccccc2[n+]1CCCCCCCCCC[n+]1c(C)cc(N)c2ccccc21
4. NC(=O)N/N=C/c1ccc(Oc2ccc(F)cc2)cc1
5. CO[C@@H]1[C@@H](OC2O[C@H](C)[C@@H](O[C@H]3C[C@@](C)(O)[C@@H](O)[C@H](C)O3)[C@H](N(C)C)[C@H]2O)[C@@H](CC=O)C[C@@H](C)[C@@H](O[C@H]2CC[C@H](N(C)C)[C@@H](C)O2)/C=C/C=C/C[C@@H](C)OC(=O)C[C@H]1O (some centres not stated)

Result:
-17.4
-3.59
-14.5
2.45
-5.7

Quick request: relative growth in counter assay for each listed item, please.
1. O=C(Nc1ccc(S(=O)(=O)Nc2ccccc2Cl)c(Cl)c1)c1ccccn1
2. COC(=O)Nc1nc2ccc(S(=O)c3ccccc3)cc2[nH]1 (configuration not stated)
3. Nc1ccc(-c2ccc3ncc4ccc(=O)n(-c5cccc(C(F)(F)F)c5)c4c3c2)cn1
4. CN(C)CCCN1c2ccccc2Sc2ccccc21
5. O=C(c1cc(S(=O)(=O)Nc2ccccc2F)c(F)cc1Cl)N1CCN2CCC[C@@H]2C1
6. CN1CCN(C2=Nc3ccccc3Sc3ccc(Cl)cc32)CC1

Result:
1.67
-12.6
-34.6
5.27
-1.66
0.53

List the reported relative growth in counter assay of each compound below.
1. CCC(=O)O[C@@H]1CC(=O)O[C@H](C)C/C=C/C=C/[C@H](O)[C@H](C)C[C@H](CC=O)[C@H](O[C@@H]2O[C@H](C)[C@@H](O[C@H]3C[C@@](C)(O)[C@@H](OC(=O)CC)[C@H](C)O3)[C@H](N(C)C)[C@H]2O)[C@H]1OC
2. OCCN1CCN(CCCN2c3ccccc3Sc3ccc(C(F)(F)F)cc32)CC1 [Fluphenazine HCl]
3. CCCCCCCCCCCCCCCC[N+](C)(C)C
4. Cc1ccc(/C=C2\CNC/C(=C\c3ccc(C)cc3)C2=O)cc1
5. COc1cccc2c(O)c3c(O)c4c(c(O)c3c(O)c12)=C(O[C@H]1C[C@H](N)[C@@H](O)[C@H](C)O1)C[C@](O)(C(=O)CO)C=4 [Epirubicin HCl]

Result:
1. -8.86
2. 15.7
3. -33.4
4. -34.5
5. -34.6

---

Can you tell me relative growth in counter assay for the items I'm about to list?
tested on: HEK293FT dCK*-only; experiment: relative growth in counter assay (no AraC = 100%, AraC + DMSO = 0%); higher = more growth rescue independent of IKZF1; conditions: compound concentration: 5 uM; AraC concentration: 0.3 uM; overnight pretreatment + 4 days AraC
Give bare numbers, in %.

Worked cases, answers included:
CN1CCCC(CC2c3ccccc3Sc3ccccc32)C1 (stereo not drawn); 2.04
COC(=O)Nc1ccc(-c2nc(N3CCOCC3)c3cnn(C4CCN(C(=O)OC)CC4)c3n2)cc1; -9.33
CC(C)c1ccc(-c2cc(=O)c3ccccc3o2)cc1; -5.2
Nc1ncnc2c1c(-c1cnc3[nH]ccc3c1)nn2C1CCCC1; -33.6
O=c1n(CC2CO2)c(=O)n(CC2CO2)c(=O)n1CC1CO1 (stereo not drawn) [Triglycidyl isocyanurate]; -31.7

Give one value of relative growth in counter assay per listed molecule.
1. C=C1/C(=C/C=C2\CCC[C@]3(C)[C@@H]([C@H](C)/C=C/[C@@H](C)C(C)C)CC[C@@H]23)C[C@@H](O)C[C@@H]1O
2. C[C@H]1NCc2cc(-c3ccc4c(=O)c(C(=O)O)cn(C5CC5)c4c3OC(F)F)ccc21 [Garenoxacin (Mesylate hydrate)]
3. CC(=O)Nc1ncc([N+](=O)[O-])s1

Result:
1. 1.09
2. -3.04
3. 5.87

---

tested on: HEK293FT dCK*-IKZF1; assay: relative growth recovery (pomalidomide 10 uM = 100%, DMSO = 0%); higher = more growth rescue (IKZF1 fusion degradation); settings: compound concentration: 5 uM; AraC concentration: 0.3 uM; overnight pretreatment + 4 days AraC
Test readout: relative growth recovery (%)
Answers are plain numbers, in %.

CCN(CC)CCCC(C)Nc1nc(C)cc(Nc2ccc3nc(C)cc(N)c3c2)n1 (stereo not given); 0.345
O=C(c1cc(S(=O)(=O)Nc2ccccc2F)c(F)cc1Cl)N1CCN2CCC[C@@H]2C1; -3.52
ClC1=CC=CC(NC2=C3C(N(C(C)C)C=N3)=NC(N[C@H]([C@@H](C)C)CO)=N2)=C1 [purvalanol-a]; -1.66
Nc1ccc2cc3ccc(N)cc3nc2c1; -15

State the recorded relative growth recovery for every item in the following list.
1. Cc1ccc2c(Cl)cc(Cl)c(O)c2n1
2. C1CCC(N/C(=N/C23CC4CC(CC(C4)C2)C3)N2CCOCC2)CC1
3. Oc1c(Br)cc(Br)c2cccnc12

Result:
1. 0.855
2. 1.62
3. -2.54

// each compound listed below needs its relative growth recovery
1. O=C1NC(=O)/C(=C/c2ccc(-c3ccc(F)cc3O)o2)S1
2. C=C1C(=O)O[C@@H]2C[C@@]3(C)CCC[C@H](C)C3=C[C@H]12 [alantolactone]
3. CN1C(=O)CC(C)(c2ccccc2)C1=O (stereo not given)

Result:
[-0.795, -7.37, 3]

---

system: HEK293FT dCK*-IKZF1; assay: relative growth recovery (pomalidomide 10 uM = 100%, DMSO = 0%); higher = more growth rescue (IKZF1 fusion degradation); details: compound concentration: 5 uM; AraC concentration: 0.3 uM; overnight pretreatment + 4 days AraC
Test readout: relative growth recovery (%)
One number for each entry, in %.

Take a look at these entries with their results.
CCOc1ccc2nc3cc(N)ccc3c(N)c2c1; -6.36
CC(C)/N=c1/cc2n(-c3ccc(Cl)cc3)c3ccccc3nc-2cc1Nc1ccc(Cl)cc1; -0.03
Cc1noc(C)c1-c1ccc(-c2cc(C(N)=O)c(NC(N)=O)s2)c(O[C@H]2CCNC2)c1; 3.93

Query: Provide only the value of recorded relative growth recovery for C=C1/C(=C\C=C2/CCC[C@]3(C)[C@@H]([C@H](C)CCCC(C)(C)O)CC[C@@H]23)C[C@@H](O)C[C@@H]1O
Result: -0.98

---

system: HEK293FT dCK*-IKZF1; assay: relative growth recovery (pomalidomide 10 uM = 100%, DMSO = 0%); higher = more growth rescue (IKZF1 fusion degradation); settings: compound concentration: 5 uM; AraC concentration: 0.3 uM; overnight pretreatment + 4 days AraC
Would you mind telling me the reported relative growth recovery of each entry?
Answers are plain numbers, in %.

Check out these entries, answers already filled in.
CC[n+]1c(-c2ccccc2)c2cc(N)ccc2c2ccc(N)cc21; -12.2
Cc1ncsc1-c1ccc(CNC(=O)[C@@H]2C[C@@H](O)CN2C(=O)[C@@H](NC(=O)COCCCCOc2ccc(-c3ccc(N4C(=S)N(c5ccc(C#N)c(C(F)(F)F)c5)C(=O)C4(C)C)cc3)cc2)C(C)(C)C)cc1; 55.3
Cc1cc(C)nc(NS(=O)(=O)c2ccc(NC(=S)NC(=O)COc3ccc(Br)cc3Cl)cc2)n1; 1.03

Query: Recall and state the measured relative growth recovery for NC(=O)Nc1sc(-c2ccc(F)cc2)cc1C(N)=O .
Result: -9.27

---

I'd be grateful if you could share measured relative growth recovery for these entries.
tested on: HEK293FT dCK*-IKZF1; assay: relative growth recovery (pomalidomide 10 uM = 100%, DMSO = 0%); higher = more growth rescue (IKZF1 fusion degradation); conditions: compound concentration: 5 uM; AraC concentration: 0.3 uM; overnight pretreatment + 4 days AraC
Numbers only, in %.

c1cc2c(cc1C1CCCCC1)c1c3n2CCNC3CCC1 (stereo not given) [tetrindole]; -9.3
Nc1ncn([C@@H]2O[C@H](CO)C(O)C2O)c(=O)n1 (stereo not given in full) [Azacitidine]; -3.45
COC1=C(OC)C(=O)C(CCCCCCCCCCO)=C(C)C1=O; -2.21

I would be grateful if you could provide relative growth recovery for each of the following entries.
1. O=C(Nc1ccc(S(=O)(=O)C(F)(F)F)cc1)C1=CCN(c2ncccc2C(F)(F)F)CC1
2. Cc1cc(C)c(C2=NOC3C4CCC(C4)C23)c(C)c1 (stereo not given)

Result:
1. 53.1
2. -0.34

Value source: the supplement of paper PMC12340641
